# Experimental system: reuptake of dopamine in synaptosomes of rat forebrain (Rattus norvegicus, UniProt P23977)
# Construct: Fresh whole forebrain (at 0-4°C) from male Wistar rats (150-200 g) is homogenized
# Sequence (P23977 whole entry): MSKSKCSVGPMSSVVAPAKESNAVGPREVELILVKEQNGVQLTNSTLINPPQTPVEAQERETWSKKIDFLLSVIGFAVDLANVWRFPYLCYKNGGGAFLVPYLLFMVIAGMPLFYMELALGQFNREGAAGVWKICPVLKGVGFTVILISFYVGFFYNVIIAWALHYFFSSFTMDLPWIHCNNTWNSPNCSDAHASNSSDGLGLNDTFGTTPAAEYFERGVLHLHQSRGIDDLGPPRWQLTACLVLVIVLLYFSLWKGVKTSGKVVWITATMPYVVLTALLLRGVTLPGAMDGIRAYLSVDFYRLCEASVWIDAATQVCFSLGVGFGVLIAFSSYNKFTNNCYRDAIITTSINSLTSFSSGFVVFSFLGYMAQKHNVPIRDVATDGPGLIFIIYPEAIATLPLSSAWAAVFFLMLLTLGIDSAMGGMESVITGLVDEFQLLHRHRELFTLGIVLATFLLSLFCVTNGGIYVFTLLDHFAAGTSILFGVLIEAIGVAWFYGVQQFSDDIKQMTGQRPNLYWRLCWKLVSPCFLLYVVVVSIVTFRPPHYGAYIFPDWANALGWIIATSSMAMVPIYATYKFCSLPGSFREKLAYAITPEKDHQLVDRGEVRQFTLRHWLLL
# Assay explanation: inhibition of reuptake of 3H-dopamine in synaptosomes of rat forebrain
Property name: pIC50
Field pIC50 (float): negative decimal logarithm of the concentration in molar.

[in] What pIC50 value was documented for this compound, CN1[C@H]2CC[C@@H]1[C@H](COc1ccc(Cl)cc1)[C@@H](c1ccc(F)cc1)C2.Cl [hydrochloride] ?
[out] 6.41
